This collection of values is drawn from patent US20100249145A1.

The entries below come with measured IC50 values attached.
# Tested on: A549
# protocol details: A549 wound healing inhibition (HGF dependent migration)
# Format: cell-based
# test settings: Homo sapiens, Table 31, read-out: A549 wound healing inbib IC50

{"columns": ["compound", "IC50"],
 "data": [
  ["CN(c1ccc(NC(=S)NC(=O)Cc2ccccc2)cc1F)c1ccnc2ccsc12", "5000 to 10000 nM"],
  ["C#Cc1cc(F)ccc1CC(=O)NC(=S)Nc1ccc(Oc2ccnc3cc(-c4cn(CCN5CCCC5)cn4)sc23)c(F)c1", "< 1000 nM"],
  ["C#Cc1cc(F)ccc1CC(=O)NC(=S)Nc1ccc(Oc2ccnc3cc(-c4ccc(CN5CCN(C)CC5)cc4)sc23)c(F)c1", "1000 to 5000 nM"],
  ["O=C(Cc1ccccc1)NC(=S)Nc1ccc(Oc2ccnc3cc(-c4cccc[n+]4[O-])sc23)c(F)c1", "< 1000 nM"],
  ["COCCNCc1ccc(-c2cc3nccc(Oc4ccc(NC(=S)NC(=O)Cc5ccc(F)cc5)cc4F)c3s2)cc1", "< 1000 nM"],
  ["O=C(Cc1ccc(F)cc1)NC(=S)Nc1ccc(Oc2ccnc3cc(-c4cccc[n+]4[O-])sc23)c(F)c1", "< 1000 nM"],
  ["CN(CCO)Cc1ccc(-c2cc3nccc(Oc4ccc(NC(=S)NC(=O)Cc5ccccc5)cc4F)c3s2)cc1", "< 1000 nM"],
  ["CN1CC=C(c2cc3nccc(Oc4ccc(NC(=S)NC(=O)Cc5ccc(F)cc5)cc4F)c3s2)CC1", "< 1000 nM"],
  ["C#Cc1ccccc1CC(=O)NC(=S)Nc1ccc(Oc2ccnc3cc(C4=CCN(C)CC4)sc23)c(F)c1", "< 1000 nM"],
  ["O=C(Cc1ccccc1)NC(=S)Nc1ccc(Oc2ccnc3cc(-c4ccc(CN5CCCC5)cn4)sc23)c(F)c1", "< 1000 nM"],
  ["CN1CCN(CCN(C)Cc2ccc(-c3cc4nccc(Oc5ccc(NC(=S)NC(=O)Cc6ccccc6)cc5F)c4s3)cc2)CC1", "< 1000 nM"],
  ["Cn1ccnc1-c1cc2nccc(Oc3ccc(NC(=S)NC(=O)Cc4ccc(F)cc4)cc3F)c2s1", "< 1000 nM"],
  ["CC(=O)N1CC=C(c2cc3nccc(Oc4ccc(NC(=S)NC(=O)Cc5ccc(F)cc5)cc4F)c3s2)CC1", "< 1000 nM"],
  ["CCn1cc(-c2cc3nccc(Oc4ccc(NC(=S)NC(=O)Cc5ccccc5)cc4F)c3s2)nn1", "< 1000 nM"],
  ["CCn1cnc(-c2cc3nccc(Oc4ccc(NC(=S)NC(=O)Cc5ccccc5O)cc4F)c3s2)c1", "1000 to 5000 nM"],
  ["Cn1cnc(-c2cc3nccc(Oc4ccc(NC(=S)NC(=O)Cc5cccc(F)c5)cc4F)c3s2)c1", "< 1000 nM"],
  ["CNC(=O)N1CCN(Cc2ccc(-c3cc4nccc(Oc5ccc(NC(=S)NC(=O)Cc6ccccc6)cc5F)c4s3)cc2)CC1", "< 1000 nM"],
  ["CCn1cnc(-c2cc3nccc(Oc4ccc(NC(=S)NC(=O)Cc5ccccc5C)cc4F)c3s2)c1 [drawing 441]", "< 1000 nM"],
  ["CN1CCN(Cc2ccc(-c3cc4nccc(Oc5ccc(NC(=S)NC(=O)Cc6ccccc6)cc5F)c4s3)nc2)CC1", "< 1000 nM"],
  ["COCCNCc1ccc(-c2cc3nccc(Oc4ccc(NC(=S)NC(=O)Cc5ccc(F)cc5)cc4F)c3s2)c(F)c1", "< 1000 nM"],
  ["C#Cc1ccc(CC(=O)NC(=S)Nc2ccc(Oc3ccnc4cc(-c5ccc(CN6CCN(C)CC6)cc5)sc34)c(F)c2)cc1", "> 10000 nM"],
  ["C#Cc1ccc(CC(=O)NC(=S)Nc2ccc(Oc3ccnc4cc(-c5nccn5C)sc34)c(F)c2)cc1", "1000 to 5000 nM"]
]}
